assayProtocol: Inhibition of HDAC in human A2780CisR cells using Boc-Lys(epsilon-Ac)-AMC as substrate preincubated for 18 hrs followed by substrate addition measured after 3 hrs by fluorescence assay
Assay type: cell-based

# smi, IC50 (nM)
data = [
    ("O=C(CCCCCONC(=O)Nc1ccc2ccccc2c1)NO", 1600),
    ("COc1cc(NC(=O)NOCCCCCC(=O)NO)c2ncccc2c1", 500),
    ("O=C(CCCCCONC(=O)Nc1cccc2cccnc12)NO", 900),
]

====

Tested on: A2780
assayProtocol: Antiproliferative activity against human A2780 cells measured after 72 hrs by MTT assay
Type: functional, cell-based
assayConditions: A2780, 72 h

# smi, tgt, unitTag, IC50
measured = [
    ("CN(O)C(=O)CCCCCONC(=O)Nc1cccc2ccccc12", "A2780", "nM", 46800),
    ("O=C(CCCCCONC(=O)Nc1cccc2cccnc12)NO", "A2780", "nM", 3000),
    ("COc1cc(NC(=O)NOCCCCCC(=O)NO)c2nc(OC)cc(C)c2c1", "A2780", "nM", 800),
    ("Cc1ccc2cccc(NC(=O)NOCCCCCC(=O)NO)c2n1", "A2780", "nM", 4300),
    ("COc1cc(NC(=O)NOCCCCCC(=O)NO)c2ncccc2c1", "A2780", "nM", 1200),
    ("COc1cc(NC(=O)NOCCCCCC(=O)NO)c2nccc(C)c2c1", "A2780", "nM", 1100),
    ("O=C(CCCCCONC(=O)Nc1ccc2ccccc2c1)NO", "A2780", "nM", 1400),
    ("O=C(CCCCCONC(=O)Nc1ccc2ncccc2c1)NO", "A2780", "nM", 27300),
    ("COc1cc(NC(=O)NOCCCCCC(=O)NO)c2nc(OC(C)C)cc(C)c2c1Oc1cccc(C(F)(F)F)c1", "A2780", "nM", 1700),
]
